Every entry's value here was drawn from ChEMBL document CHEMBL5584343.

METHOD_NOTES: AUC (0 to infinity) in male C57BL/6 mouse at 300 mg/kg, sc administered once in a day and measured after 24 hrs by LC-MS/MS analysis
Assay type: ADME, organism-based
EXPERIMENTAL_SETUP: mouse, in vivo, sc, 300 mg/kg, 24 h
VALUE_TYPE: AUC (µM·h)
Number only, in µM·h; omit the unit.

Fill in: AUC of O=C(O)c1cc(CN2CC(Oc3ccc(NS(=O)(=O)c4cnn(-c5ccc(F)cc5)c4)c(C(=O)O)c3)C2)ccc1NS(=O)(=O)c1cnn(-c2ccc(F)cc2)c1 is ___
2270

====

METHOD_NOTES: AUC (0 to infinity) in male C57BL/6 mouse at 300 mg/kg, sc administered once in a day and measured after 24 hrs by LC-MS/MS analysis
Type: ADME, organism-based
EXPERIMENTAL_SETUP: male, C57BL/6, mouse, in vivo
VALUE_TYPE: AUC(0-inf) (µM·h)
I only need the number, in µM·h, no unit after it.

Any idea what its AUC(0-inf) is? The compound is O=C(CCCOc1ccc(NS(=O)(=O)c2ccc(-c3ccc(C(F)(F)F)cc3)cc2)c(C(=O)O)c1)Nc1ccc(NS(=O)(=O)c2ccc(-c3ccc(C(F)(F)F)cc3)cc2)c(C(=O)O)c1
885

====

// reported MIC for each item listed
System: Acinetobacter baumannii
METHOD_NOTES: Antibacterial activity against Acinetobacter baumannii CLB21655 assessed as bacterial growth inhibition incubated for 18 to 20 hrs by microbroth dilution method
Assay type: functional
EXPERIMENTAL_SETUP: time 18-20 hrs
Answer in µM, number only, no unit symbol.

Solved entries (count: 3):
O=C(O)c1cc(CN2CC(Oc3ccc(NS(=O)(=O)c4cnn(-c5ccc(F)cc5)c4)c(C(=O)O)c3)C2)ccc1NS(=O)(=O)CCCCCc1ccc(Cl)cc1 | 0.024
O=C(O)c1cc(CN2CC(Oc3ccc(NS(=O)(=O)N4CCOC(c5ccc(F)cc5)C4)c(C(=O)O)c3)C2)ccc1NS(=O)(=O)CCCc1ccc(F)cc1 (racemic) | 0.098
O=C(O)c1cc(CN2CC(Oc3ccc(NS(=O)(=O)N4CCOC(c5ccc(F)cc5)C4)c(C(=O)O)c3)C2)ccc1NS(=O)(=O)CCCCc1ccc(Cl)cc1 (single isomer, unassigned) | 0.049

Alright, here's another molecule for you.
Find the recorded MIC belonging to O=C(O)c1cc(CN2CC(Oc3ccc(NS(=O)(=O)c4cnn(-c5ccc(F)cc5)c4)c(C(=O)O)c3)C2)ccc1NS(=O)(=O)CCCCc1ccc(Cl)cc1 and report it.
0.078

====

Each entry below carries its reported MIC95.
System: Acinetobacter baumannii
METHOD_NOTES: Antibacterial activity against Acinetobacter baumannii ATCC19606 incubated for 18 to 20 hrs in presence of 1% of human serum by microbroth dilution method
Type: functional
EXPERIMENTAL_SETUP: time 18-20 hrs
State the answer as a number, implicitly in µM.

Below, 2 molecules whose answers are already recorded.
CCCCc1ccc(S(=O)(=O)Nc2ccc(NC(=O)CCC(=O)Nc3ccc(NS(=O)(=O)c4ccc(CCCC)cc4)c(S(=O)(=O)O)c3)cc2C(=O)O)cc1 | 12.5
O=C(CCCOc1ccc(NS(=O)(=O)c2ccc(-c3ccc(Cl)cc3)s2)c(C(=O)O)c1)Nc1ccc(NS(=O)(=O)c2ccc(-c3ccc(Cl)cc3)s2)c(C(=O)O)c1 | 2.21

Query: MIC95; subject: O=C(CCCOc1ccc(NS(=O)(=O)c2cnn(-c3ccc(F)cc3)c2)c(C(=O)O)c1)Nc1ccc(NS(=O)(=O)c2cnn(-c3ccc(F)cc3)c2)c(C(=O)O)c1
2.03

Same question, O=C(CCCOc1ccc(NS(=O)(=O)c2ccc(-c3ccccc3)s2)c(C(=O)O)c1)Nc1ccc(NS(=O)(=O)c2ccc(-c3ccccc3)s2)c(C(=O)O)c1 this time
3.12

For CCCCc1ccc(S(=O)(=O)Nc2ccc(NC(=O)CCC(=O)Nc3ccc(NS(=O)(=O)c4ccc(N5CCOCC5)nc4)c(C(=O)O)c3)cc2C(=O)O)cc1 then?
25
